# target-desc: mineralocorticoid receptor (MR) (Homo sapiens)
# Sequence (P08235 726-964 limits assumed, species assumed): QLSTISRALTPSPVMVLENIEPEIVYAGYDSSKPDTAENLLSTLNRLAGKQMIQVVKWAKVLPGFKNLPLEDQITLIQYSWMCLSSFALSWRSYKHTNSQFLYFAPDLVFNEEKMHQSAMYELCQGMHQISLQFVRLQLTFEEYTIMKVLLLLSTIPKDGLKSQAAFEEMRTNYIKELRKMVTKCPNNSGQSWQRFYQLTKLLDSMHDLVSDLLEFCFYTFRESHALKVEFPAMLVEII
# experimental-details: Cell-based Gal4 response element-controlled luciferase reporter assay (MR antagonism)
# condition: Huh7 human liver cells transfected with Gal4 DBD-MR LBD fusion and luciferase reporter; block of agonist-induced activation; overnight incubation
readout-name: IC50 (nM)
Lab book: enter the figure in nM, no units written.

QUERY: Quote IC50 reported for N#Cc1ccc(N2N=C3c4ccc(C(=O)O)cc4CCC3C2C2CCC2)cc1Cl (racemic) please.
RESULT: 21

QUERY: Quote IC50 reported for N#Cc1ccc(N2N=C3c4ccc(C(=O)O)cc4OCC3C2C2CCCC2)cc1 (racemic) please.
RESULT: 906

QUERY: Quote IC50 reported for `Cc1cc(N2N=C3c4ccc(C(=O)O)cc4CC[C@H]3[C@H]2c2ccc(F)cc2)ccc1C#N` please.
RESULT: 2740

QUERY: Quote IC50 reported for Cc1cc(N2N=C3c4ccc(C(=O)O)cc4OCC3C2c2ccc(F)cc2)ccc1C#N (racemic) please.
RESULT: 307

QUERY: Quote IC50 reported for N#Cc1ccc(N2N=C3c4ccc(C(=O)O)cc4CCC3C2C2CCCC2)cc1OCc1ccccc1 (racemic) please.
RESULT: 488

QUERY: Quote IC50 reported for Cc1cc(N2N=C3c4ccc(C(=O)O)cc4OCC3C2C(C)C)ccc1C#N (centres unmarked) please.
RESULT: 167

---

# target-desc: UniProtKB P08235
# experimental-details: Cell-based Gal4 response element-controlled luciferase reporter assay (MR antagonism)
# condition: Huh7 human liver cells transfected with Gal4 DBD-MR LBD fusion and luciferase reporter; block of agonist-induced activation; overnight incubation
readout-name: pIC50
Entry type: numeric. Quantity: pIC50, the -log10 of concentration in molar units.

QUERY: Quote pIC50 reported for N#Cc1ccc(N2N=C3c4cc(C(=O)NCCN5CCCC5)ccc4CC[C@@H]3[C@@H]2c2ccc(F)cc2)cc1Cl (racemic) [Example 112] please.
RESULT: 5.81

QUERY: Quote pIC50 reported for N#Cc1ccc(N2N=C3c4cc(C(=O)O)ccc4CCC3C2c2ccc(F)cc2)cc1Cl (racemic) [Example 5] please.
RESULT: 5.43

QUERY: Quote pIC50 reported for Cc1ccc([C@H]2[C@H]3CCc4cc(C(=O)O)ccc4C3=NN2c2ccc(C#N)c(Cl)c2)o1 [Example 40] please.
RESULT: 8.22

QUERY: Quote pIC50 reported for COc1cc(N2N=C3c4ccc(C(=O)O)cc4CC[C@H]3[C@H]2C2CCCC2)ccc1C#N [Example 27] please.
RESULT: 6.52

QUERY: Quote pIC50 reported for C[S+]([O-])CCNC(=O)c1ccc2c(c1)CC[C@H]1C2=NN(c2ccc(C#N)c(Cl)c2)[C@H]1C1CCOCC1 (mixture of isomers) [Example 99] please.
RESULT: 7.85

QUERY: Quote pIC50 reported for N#Cc1ccc(N2N=C3c4ccc(C(=O)O)cc4OC[C@@H]3[C@@H]2C2CCCC2)cc1 [Example 71] please.
RESULT: 6.69

QUERY: Quote pIC50 reported for Cc1cc(N2N=C3c4ccc(C(=O)O)cc4CC[C@@H]3[C@@H]2c2ccc(F)cc2)ccc1C#N [Example 7] please.
RESULT: 7.76

QUERY: Quote pIC50 reported for N#Cc1ccc(N2N=C3c4ccc(C(=O)NCCS(N)(=O)=O)cc4CC[C@@H]3[C@@H]2C2CCOCC2)cc1Cl (racemic) [Example 105] please.
RESULT: 6.85

QUERY: Quote pIC50 reported for N#Cc1ccc(N2N=C3c4ccc(C(=O)O)cc4OCC3C2C2=CCCC2)cc1Cl (racemic) [Example 78] please.
RESULT: 7.15

QUERY: Quote pIC50 reported for N#Cc1ccc(N2N=C3c4ccc(C(=O)O)cc4CCC3C2C2=CCCC2)cc1 (racemic) [Example 50] please.
RESULT: 6.69

QUERY: Quote pIC50 reported for Cc1ccc([C@H]2[C@H]3CCc4cc(C(=O)NCCS(C)(=O)=O)ccc4C3=NN2c2ccc(C#N)c(Cl)c2)o1 [Example 117] please.
RESULT: 8.52

QUERY: Quote pIC50 reported for Cc1cc(N2N=C3c4ccc(C(=O)O)cc4CC[C@@H]3[C@@H]2C2CCCC2)ccc1C#N (single isomer, unassigned) [Example 22] please.
RESULT: 8.40

QUERY: Quote pIC50 reported for N#Cc1ccc(N2N=C3c4ccc(C(=O)NCCN5CCCC5)cc4CC[C@@H]3[C@@H]2c2ccc(F)cc2)cc1Cl (racemic) [Example 111] please.
RESULT: 7.24

QUERY: Quote pIC50 reported for N#Cc1ccc(N2N=C3c4ccc(O)cc4CC[C@@H]3[C@@H]2c2ccc(F)cc2)cc1Cl [Example 87] please.
RESULT: 7.44

QUERY: Quote pIC50 reported for CC(=O)Nc1ccc2c(c1)CCC1C2=NN(c2ccc(C#N)c(Cl)c2)C1C1CCCC1 (stereo not shown) [Example 91] please.
RESULT: 8.30
